# PROTOCOL DESCRIPTION: Volume of distribution at steady state in CD-1 mouse at 1 mg/kg, iv
# Format: ADME, organism-based
# PROTOCOL CONDITIONS: in vivo, read-out: Vdss
READOUT NAME: Vd
Give the number first and the unit second.

[Q] Could you please provide reported Vd for Cc1cnc(-c2ccc(OC(F)(F)F)cc2)n1Cc1ccccc1OCCC[C@@H](C)CC(=O)O ? Thanks!
[A] 5.8 L/kg

###

# PROTOCOL DESCRIPTION: Permeability across basolateral to apical side in human Caco2 cells
# Format: ADME, cell-based
# PROTOCOL CONDITIONS: Caco-2, read-out: permeability
READOUT NAME: Papp B→A (×10⁻⁶ cm/s)
Report as a plain number; the unit ×10⁻⁶ cm/s is understood.

[Q] Could you please provide reported Papp B→A for Cc1cnc(-c2ccc(OC(F)(F)F)cc2)n1Cc1ccccc1OCCC[C@@H](C)CC(=O)O ? Thanks!
[A] 41

###

# PROTOCOL DESCRIPTION: Cmax in Wistar rat at 3 mg/kg, po
# Type: ADME, organism-based
# Parameters: route oral, dose 3 mg/kg
# PROTOCOL CONDITIONS: in vivo
READOUT NAME: Cmax (ng/mL)
Report as a plain number; the unit ng/mL is understood.

[Q] Could you please provide reported Cmax for Cc1cnc(-c2ccc(OC(F)(F)F)cc2)n1Cc1ccccc1OCCC[C@@H](C)CC(=O)O ? Thanks!
[A] 1090

###

# PROTOCOL DESCRIPTION: Half life in CD-1 mouse at 3 mg/kg, po
# Type: ADME, organism-based
# PROTOCOL CONDITIONS: in vivo
READOUT NAME: half-life (h)
Report as a plain number; the unit h is understood.

[Q] Could you please provide reported half-life for Cc1cnc(-c2ccc(OC(F)(F)F)cc2)n1Cc1ccccc1OCCC[C@@H](C)CC(=O)O ? Thanks!
[A] 3.4

###

# TARGET OF ASSAY: Peroxisome proliferator-activated receptor delta (Homo sapiens, UniProt Q03181)
# Sequence (Q03181 whole entry): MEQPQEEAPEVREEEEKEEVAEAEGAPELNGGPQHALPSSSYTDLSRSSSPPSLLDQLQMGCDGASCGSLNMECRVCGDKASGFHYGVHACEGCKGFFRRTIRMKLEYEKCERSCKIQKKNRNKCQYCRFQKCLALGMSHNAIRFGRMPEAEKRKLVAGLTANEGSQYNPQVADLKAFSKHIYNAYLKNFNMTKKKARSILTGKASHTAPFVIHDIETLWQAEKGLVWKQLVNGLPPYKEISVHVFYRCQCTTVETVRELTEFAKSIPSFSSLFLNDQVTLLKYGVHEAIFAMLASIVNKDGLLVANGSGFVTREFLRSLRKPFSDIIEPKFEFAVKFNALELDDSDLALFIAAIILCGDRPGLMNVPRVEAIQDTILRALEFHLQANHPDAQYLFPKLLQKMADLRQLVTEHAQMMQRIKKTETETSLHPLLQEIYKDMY
READOUT NAME: pEC50
The read-out pEC50 is expressed as -log10 of concentration in moles per litre.

CHEMICAL STRUCTURE: C/C(=C\COc1ccccc1Cn1c(C)cnc1-c1ccc(OC(F)(F)F)cc1)CCC(=O)O
TARGET OF ASSAY: Peroxisome proliferator-activated receptor delta (Homo sapiens, UniProt Q03181)
pEC50: 9.52

[Q] Could you please provide reported pEC50 for Cc1cnc(-c2ccc(Cl)cc2)n1Cc1ccccc1OCCC[C@@H](C)CC(=O)O ? Thanks!
[A] 8.26

[Q] Could you please provide reported pEC50 for Cc1cnc(-c2ccc(OC(F)(F)F)cc2)n1Cc1ccccc1OCCC[C@@H](C)CC(=O)O ? Thanks!
[A] 9.40

[Q] Could you please provide reported pEC50 for Cc1cnc(-c2ccc(-c3ccco3)cc2)n1Cc1ccccc1OCCCCCC(=O)O ? Thanks!
[A] 9.15

[Q] Could you please provide reported pEC50 for C/C(=C\COc1ccccc1Cc1c(-c2ccc(-c3ccco3)cc2)ncn1C)CCC(=O)O ? Thanks!
[A] 8.89
